Test system: c-Abl (mouse)
Experiment: phosphorylation enrichment, bacterial display (enrichment ratio); higher = better substrate or ligand; peptides without Tyr show the background
Tick t if phosphorylation enrichment is 0.8 or greater. Tick f if phosphorylation enrichment is less than 0.8.

Entry ERWLKYFPNEQ [HS3ST5_Y244_I247N] : is its phosphorylation enrichment no less than 0.8? f

Is it the case that EPVSDYINASI [PTPN11_Y304_N308S] has phosphorylation enrichment reaching or exceeding 0.8? t

I'd appreciate it if you could say whether SSRKEYFIGGG [GYPC_Y126] has phosphorylation enrichment at least equal to 0.8. f

Determine whether this sequence has phosphorylation enrichment no lower than 0.8: ESPGLYGFLNV [BCR_Y910] f

I'd appreciate it if you could say whether GKMPQYLESMQ [CYB5R3_Y130_S128P] has phosphorylation enrichment at least equal to 0.8. f

Please check the record FIGRIYLFLTK [GARS1_Y414_YF] and state if its phosphorylation enrichment is at or above 0.8. t

Would you say TKEPKYEGAGS [KIAA1210_Y1615] shows phosphorylation enrichment at minimum 0.8? f

Item EQKKYYNATKK [SCN5A_Y1495_M1498T] with phosphorylation enrichment of 0.8 or above? f

Is phosphorylation enrichment for TESNNYIYTTL [FAM83B_Y637_K640T] at or above 0.8? f

Has EFENSYIFDIN [GAB1_Y83] a recorded phosphorylation enrichment greater than or equal to 0.8? f

Test whether the sequence AHAGEYGAGAL [HBA1_Y25_E28G] records phosphorylation enrichment of 0.8 or higher. f

###

Target: MERTK (UniProt Q12866)
Sequence (Q12866 whole entry, looked up): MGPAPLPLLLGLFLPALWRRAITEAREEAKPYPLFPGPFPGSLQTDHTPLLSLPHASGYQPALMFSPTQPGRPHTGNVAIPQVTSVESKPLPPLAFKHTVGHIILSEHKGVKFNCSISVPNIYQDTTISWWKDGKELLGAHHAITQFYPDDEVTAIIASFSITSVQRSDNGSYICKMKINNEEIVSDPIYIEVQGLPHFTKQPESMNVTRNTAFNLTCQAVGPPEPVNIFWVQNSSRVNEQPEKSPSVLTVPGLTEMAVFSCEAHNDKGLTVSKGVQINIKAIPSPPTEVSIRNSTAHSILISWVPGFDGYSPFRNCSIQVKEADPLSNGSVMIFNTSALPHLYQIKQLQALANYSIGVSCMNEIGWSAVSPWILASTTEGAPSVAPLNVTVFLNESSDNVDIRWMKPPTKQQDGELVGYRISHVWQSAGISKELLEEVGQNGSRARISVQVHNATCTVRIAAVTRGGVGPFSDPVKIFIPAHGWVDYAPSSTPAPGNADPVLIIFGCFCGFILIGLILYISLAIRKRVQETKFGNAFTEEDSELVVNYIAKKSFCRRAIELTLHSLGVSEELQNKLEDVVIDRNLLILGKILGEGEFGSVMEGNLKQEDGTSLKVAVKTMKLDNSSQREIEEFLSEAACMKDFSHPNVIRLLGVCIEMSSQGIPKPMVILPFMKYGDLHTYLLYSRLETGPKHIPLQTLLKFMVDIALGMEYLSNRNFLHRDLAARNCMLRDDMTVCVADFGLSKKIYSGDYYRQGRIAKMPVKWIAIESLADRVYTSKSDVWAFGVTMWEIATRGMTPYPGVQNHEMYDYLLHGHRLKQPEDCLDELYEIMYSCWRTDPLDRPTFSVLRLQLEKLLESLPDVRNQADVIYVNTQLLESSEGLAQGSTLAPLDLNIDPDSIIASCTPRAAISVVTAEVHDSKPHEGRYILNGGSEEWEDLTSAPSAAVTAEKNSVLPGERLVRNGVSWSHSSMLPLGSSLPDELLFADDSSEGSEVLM
Experiment: phosphorylation enrichment, bacterial display (enrichment ratio); higher = better substrate or ligand; peptides without Tyr show the background
Provide the recorded phosphorylation enrichment for the entries that follow.

Note phosphorylation enrichment for the sequence shown: DEEFEYMNRRR [ERBB3_Y1199_YF] 0.597

Give the reported phosphorylation enrichment for this sequence. LLDGEYFTLQI [TP53_Y327_P322L] 1.28

Quote phosphorylation enrichment reported for SKEPFYVHCIK [MYO1D_Y586_R588H_YF] please. 0.433

For the sequence LTDLRYKVSGP , report phosphorylation enrichment. 0.464

Name the recorded phosphorylation enrichment of the item SECCKYKIDNL [OSMR_Y689_P694L] in your answer. 0.432

Indicate its recorded phosphorylation enrichment; the sequence in question is KLKEKYQKDIA [HMGB1_Y155_E156Q] 0.557

Check the records and state phosphorylation enrichment for ALRHFYKLNII [ETV6_Y402_YF] 0.44

###

Target: c-Src SH2;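 also: peptide library displayed on the E. coli surface as eCPX fusions, selected cells deep-sequenced, score is each peptide's frequency after selection divided by its frequency in the input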
Experiment: SH2 binding enrichment of the phosphorylated peptide, bacterial display (enrichment ratio); higher = better substrate or ligand; peptides without Tyr show the background
Task for the reader: assign each of the following sequences its reported SH2 binding enrichment.
// return just the number, without any unit appended

Write down SH2 binding enrichment measured for item LTDLRYKVSGP 0.407

Supply reported SH2 binding enrichment belonging to this sequence: PELINYHQHYS [BTK_Y361_N365Y] 0.658

Return value of SH2 binding enrichment for input AERKLYRNVML [ZNF569_Y33_Q29E] , no commentary. 1.24

For QQIFTYDSGIH [JUP_Y22_T19I_YF] , write its SH2 binding enrichment. 0.653

Name the recorded SH2 binding enrichment of the item RLLVIYPWTQR [HBG2_Y36_V35I] in your answer. 1.31

Provide measured SH2 binding enrichment value, entry: NDHHFYLEGTL [ALDOB_Y223_V222F] 0.67

Complete the entry with SH2 binding enrichment for ERWLKYFPNEQ [HS3ST5_Y244_I247N] 0.707

Answer with the recorded SH2 binding enrichment for the sequence listed here: KLKEKYQKDIA [HMGB1_Y155_E156Q] 1.11

Look up SH2 binding enrichment of FLQEIYNSNNQ [FGG_Y140_YF] and report it. 0.53

Give the reported SH2 binding enrichment for this sequence. LGPSDYFGEIV [PRKAR1A_Y323_A328V] 0.654

Tell us which SH2 binding enrichment value is on record for YPKVRYHWLVL [APTX_Y214_A212V] 0.756

# return recorded SH2 binding enrichment for entry MALDIYRASYY [ALK_Y1278_R1275L] 1.19

Quote SH2 binding enrichment reported for KNNDGYTDYAE [MCFD2_Y135_I136T] please. 1.79

Supply reported SH2 binding enrichment belonging to this sequence: LITTLYIDFLG [KCNQ1_Y267_G269D] 0.698

Tell us which SH2 binding enrichment value is on record for AEVDTYCRHNY [HLA-DRB1_Y107_A103E] 0.699

State its SH2 binding enrichment: LSAPWYLNRIS [HEXA_Y421] 0.697

Using the record for AFSLKYEQQTQ [SYTL4_Y366] , state its measured SH2 binding enrichment. 0.587

Identify measured SH2 binding enrichment corresponding to MPLTEYLKRIK [CNGB3_Y200] 0.489

Identify the reported SH2 binding enrichment for the following entry. NDDDVYRSLEE [VAV2_Y142] 0.606

Provide one value: measured SH2 binding enrichment of HVIKFYGACSQ [RET_Y791_L790F] 0.546

Look up and report measured SH2 binding enrichment for this entry: LQTFRYHGLSM [PDHA1_Y289_H292L_YF] 0.486

Please list SH2 binding enrichment recorded for the sequence ITNLLYHVVSW [GBA_Y412_G416S] 0.944

Could you please provide reported SH2 binding enrichment for RAILDYIASKF [GSTA3_Y74_N73D_YF] ? Thanks! 0.689

Look up SH2 binding enrichment of VDSNPYSHLMA [UBA5_Y53_R55H] and report it. 1.59

Consider the sequence WNDPDYMDSRR [GAA_Y407_L405P] . State its measured SH2 binding enrichment. 0.417

Specify reported SH2 binding enrichment for the sequence shown: EATKVYLDDPT [G6PD_Y322_G321V] 0.534

Name the recorded SH2 binding enrichment of the sequence listed here: TGVWDYIHVVD [GALE_Y241_R239W] 0.383

Query SH2 binding enrichment for FESPRYLQVRI [FANCA_Y488_H492R] 0.742

Given ILTYKYLQIPM [KIT_Y547_K550I] , respond with its SH2 binding enrichment. 0.929

Source listed as the supplement of paper PMC10065799.
